Entries and their GRinf values follow.
Tested on: Mycobacterium tuberculosis Erdman (autoluminescent)
protocolText: GRinf, maximum normalised growth rate inhibition (three-drug combination) (unitless (-1 to 1)); higher = less effect (negative = killing)
testConditions: in vitro model: intracellular J774; time point: constant = terminal

molecule="CC(C)/N=c1\\cc2n(-c3ccc(Cl)cc3)c3ccccc3nc-2cc1Nc1ccc(Cl)cc1 [clofazimine] + O=[N+]([O-])c1cn2c(n1)OC[C@@H](OCc1ccc(OC(F)(F)F)cc1)C2 [pretomanid] + CO[C@H]1/C=C/O[C@@]2(C)Oc3c(C)c(O)c4c(O)c(c(/C=N/N5CCN(C6CCCC6)CC5)c(O)c4c3C2=O)NC(=O)/C(C)=C\\C=C\\[C@H](C)[C@H](O)[C@@H](C)[C@@H](O)[C@@H](C)[C@H](OC(C)=O)[C@@H]1C [rifapentine]" valuemeasured=-0.655
molecule="CC(=O)NC[C@H]1CN(c2ccc(N3CCOCC3)c(F)c2)C(=O)O1 [linezolid] + O=[N+]([O-])c1cn2c(n1)OC[C@@H](OCc1ccc(OC(F)(F)F)cc1)C2 [pretomanid] + CO[C@H]1/C=C/O[C@@]2(C)Oc3c(C)c(O)c4c(O)c(c(/C=N/N5CCN(C)CC5)c(O)c4c3C2=O)NC(=O)/C(C)=C\\C=C\\[C@H](C)[C@H](O)[C@@H](C)[C@@H](O)[C@@H](C)[C@H](OC(C)=O)[C@@H]1C [rifampicin]" valuemeasured=-0.287

Moving on to the next molecule.
Ask: Give a short answer stating reported GRinf for CC(C)/N=c1\cc2n(-c3ccc(Cl)cc3)c3ccccc3nc-2cc1Nc1ccc(Cl)cc1 [clofazimine] + CC(=O)NC[C@H]1CN(c2ccc(N3CCOCC3)c(F)c2)C(=O)O1 [linezolid] + NC(=O)c1cnccn1 [pyrazinamide] .
Reply: -0.0585

----------
Test system: Mycobacterium tuberculosis Erdman (autoluminescent)
protocolText: AUC25, normalised area under dose response up to IC25 (fraction (0-1)); higher = more potent at low dose
testConditions: in vitro model: butyrate; time point: terminal (~4-5 doublings, model-specific)
experimentalEndpoint: AUC25
The answer should be written as a number, with no unit following it.

Below, 3 compounds whose answers are already recorded.
compound="COc1nc2ccc(Br)cc2cc1[C@@H](c1ccccc1)[C@@](O)(CCN(C)C)c1cccc2ccccc12 [bedaquiline] + CC(C)/N=c1\\cc2n(-c3ccc(Cl)cc3)c3ccccc3nc-2cc1Nc1ccc(Cl)cc1 [clofazimine]" testedtarget="Mycobacterium tuberculosis Erdman (autoluminescent)" valuemeasured=0.0515
compound="COc1c(N2C[C@@H]3CCCN[C@@H]3C2)c(F)cc2c(=O)c(C(=O)O)cn(C3CC3)c12 [moxifloxacin] + NC(=O)c1cnccn1 [pyrazinamide]" testedtarget="Mycobacterium tuberculosis Erdman (autoluminescent)" valuemeasured=0.076
compound="COc1nc2ccc(Br)cc2cc1[C@@H](c1ccccc1)[C@@](O)(CCN(C)C)c1cccc2ccccc12 [bedaquiline] + CO[C@H]1/C=C/O[C@@]2(C)Oc3c(C)c(O)c4c(O)c(c(/C=N/N5CCN(C6CCCC6)CC5)c(O)c4c3C2=O)NC(=O)/C(C)=C\\C=C\\[C@H](C)[C@H](O)[C@@H](C)[C@@H](O)[C@@H](C)[C@H](OC(C)=O)[C@@H]1C [rifapentine]" testedtarget="Mycobacterium tuberculosis Erdman (autoluminescent)" valuemeasured=0.0717

Moving on to the next compound.
Ask: Give a short answer stating reported AUC25 for NNC(=O)c1ccncc1 [isoniazid] + O=[N+]([O-])c1cn2c(n1)OC[C@@H](OCc1ccc(OC(F)(F)F)cc1)C2 [pretomanid] .
Reply: 0.0383

----------
Entries and their AUC25 values follow.
Test system: Mycobacterium tuberculosis Erdman (autoluminescent)
protocolText: AUC25, normalised area under dose response up to IC25 (three-drug combination) (fraction (0-1)); higher = more potent at low dose
testConditions: in vitro model: butyrate; time point: constant (~7 days, model-specific)
The answer should be written as a number, with no unit following it.

compound="COc1nc2ccc(Br)cc2cc1[C@@H](c1ccccc1)[C@@](O)(CCN(C)C)c1cccc2ccccc12 [bedaquiline] + O=[N+]([O-])c1cn2c(n1)OC[C@@H](OCc1ccc(OC(F)(F)F)cc1)C2 [pretomanid] + CO[C@H]1/C=C/O[C@@]2(C)Oc3c(C)c(O)c4c(O)c(c(/C=N/N5CCN(C6CCCC6)CC5)c(O)c4c3C2=O)NC(=O)/C(C)=C\\C=C\\[C@H](C)[C@H](O)[C@@H](C)[C@@H](O)[C@@H](C)[C@H](OC(C)=O)[C@@H]1C [rifapentine]" testedtarget="Mycobacterium tuberculosis Erdman (autoluminescent)" valuemeasured=0.088
compound="COc1nc2ccc(Br)cc2cc1[C@@H](c1ccccc1)[C@@](O)(CCN(C)C)c1cccc2ccccc12 [bedaquiline] + CC(C)/N=c1\\cc2n(-c3ccc(Cl)cc3)c3ccccc3nc-2cc1Nc1ccc(Cl)cc1 [clofazimine] + CC[C@@H](CO)NCCN[C@@H](CC)CO [ethambutol]" testedtarget="Mycobacterium tuberculosis Erdman (autoluminescent)" valuemeasured=0.0618
compound="CC[C@@H](CO)NCCN[C@@H](CC)CO [ethambutol] + CC(=O)NC[C@H]1CN(c2ccc(N3CCOCC3)c(F)c2)C(=O)O1 [linezolid] + CO[C@H]1/C=C/O[C@@]2(C)Oc3c(C)c(O)c4c(O)c(c(/C=N/N5CCN(C6CCCC6)CC5)c(O)c4c3C2=O)NC(=O)/C(C)=C\\C=C\\[C@H](C)[C@H](O)[C@@H](C)[C@@H](O)[C@@H](C)[C@H](OC(C)=O)[C@@H]1C [rifapentine]" testedtarget="Mycobacterium tuberculosis Erdman (autoluminescent)" valuemeasured=0.0551
compound="CC[C@@H](CO)NCCN[C@@H](CC)CO [ethambutol] + O=[N+]([O-])c1cn2c(n1)OC[C@@H](OCc1ccc(OC(F)(F)F)cc1)C2 [pretomanid] + NC(=O)c1cnccn1 [pyrazinamide]" testedtarget="Mycobacterium tuberculosis Erdman (autoluminescent)" valuemeasured=0.0885
compound="NNC(=O)c1ccncc1 [isoniazid] + CC(=O)NC[C@H]1CN(c2ccc(N3CCOCC3)c(F)c2)C(=O)O1 [linezolid] + O=[N+]([O-])c1cn2c(n1)OC[C@@H](OCc1ccc(OC(F)(F)F)cc1)C2 [pretomanid]" testedtarget="Mycobacterium tuberculosis Erdman (autoluminescent)" valuemeasured=0.103
compound="CC(=O)NC[C@H]1CN(c2ccc(N3CCOCC3)c(F)c2)C(=O)O1 [linezolid] + O=[N+]([O-])c1cn2c(n1)OC[C@@H](OCc1ccc(OC(F)(F)F)cc1)C2 [pretomanid] + CO[C@H]1/C=C/O[C@@]2(C)Oc3c(C)c(O)c4c(O)c(c(/C=N/N5CCN(C)CC5)c(O)c4c3C2=O)NC(=O)/C(C)=C\\C=C\\[C@H](C)[C@H](O)[C@@H](C)[C@@H](O)[C@@H](C)[C@H](OC(C)=O)[C@@H]1C [rifampicin]" testedtarget="Mycobacterium tuberculosis Erdman (autoluminescent)" valuemeasured=0.0869

Moving on to the next compound.
Ask: Give a short answer stating reported AUC25 for NNC(=O)c1ccncc1 [isoniazid] + NC(=O)c1cnccn1 [pyrazinamide] + CO[C@H]1/C=C/O[C@@]2(C)Oc3c(C)c(O)c4c(O)c(c(/C=N/N5CCN(C6CCCC6)CC5)c(O)c4c3C2=O)NC(=O)/C(C)=C\C=C\[C@H](C)[C@H](O)[C@@H](C)[C@@H](O)[C@@H](C)[C@H](OC(C)=O)[C@@H]1C [rifapentine] .
Reply: 0.0899

----------
Tested on: Mycobacterium tuberculosis Erdman (autoluminescent)
protocolText: total FIC50 (Loewe) at 50% inhibition, three-drug combination (log2); higher = more antagonistic
testConditions: in vitro model: valerate; time point: terminal (~4-5 doublings, model-specific)
Entries and their total FIC50 values follow.
The answer should be written as a number, with no unit following it.

molecule="COc1c(N2C[C@@H]3CCCN[C@@H]3C2)c(F)cc2c(=O)c(C(=O)O)cn(C3CC3)c12 [moxifloxacin] + O=[N+]([O-])c1cn2c(n1)OC[C@@H](OCc1ccc(OC(F)(F)F)cc1)C2 [pretomanid] + CO[C@H]1/C=C/O[C@@]2(C)Oc3c(C)c(O)c4c(O)c(c(/C=N/N5CCN(C)CC5)c(O)c4c3C2=O)NC(=O)/C(C)=C\\C=C\\[C@H](C)[C@H](O)[C@@H](C)[C@@H](O)[C@@H](C)[C@H](OC(C)=O)[C@@H]1C" valuemeasured=0.877

Moving on to the next molecule.
Ask: Give a short answer stating reported total FIC50 for CC(=O)NC[C@H]1CN(c2ccc(N3CCOCC3)c(F)c2)C(=O)O1 [linezolid] + O=[N+]([O-])c1cn2c(n1)OC[C@@H](OCc1ccc(OC(F)(F)F)cc1)C2 [pretomanid] + CO[C@H]1/C=C/O[C@@]2(C)Oc3c(C)c(O)c4c(O)c(c(/C=N/N5CCN(C6CCCC6)CC5)c(O)c4c3C2=O)NC(=O)/C(C)=C\C=C\[C@H](C)[C@H](O)[C@@H](C)[C@@H](O)[C@@H](C)[C@H](OC(C)=O)[C@@H]1C [rifapentine] .
Reply: -0.336
